FYI, the data here is from patent US11999727B2.

biological target: PRMT5 (Homo sapiens, UniProt O14744); construct: purchased Viva (custom protein); experiment: PRMT5 biochemical IC50 assay with MTA as cofactor; conditions: PRMT5, MTA as cofactor; read-out: MTA IC50
Sequence (O14744 whole entry): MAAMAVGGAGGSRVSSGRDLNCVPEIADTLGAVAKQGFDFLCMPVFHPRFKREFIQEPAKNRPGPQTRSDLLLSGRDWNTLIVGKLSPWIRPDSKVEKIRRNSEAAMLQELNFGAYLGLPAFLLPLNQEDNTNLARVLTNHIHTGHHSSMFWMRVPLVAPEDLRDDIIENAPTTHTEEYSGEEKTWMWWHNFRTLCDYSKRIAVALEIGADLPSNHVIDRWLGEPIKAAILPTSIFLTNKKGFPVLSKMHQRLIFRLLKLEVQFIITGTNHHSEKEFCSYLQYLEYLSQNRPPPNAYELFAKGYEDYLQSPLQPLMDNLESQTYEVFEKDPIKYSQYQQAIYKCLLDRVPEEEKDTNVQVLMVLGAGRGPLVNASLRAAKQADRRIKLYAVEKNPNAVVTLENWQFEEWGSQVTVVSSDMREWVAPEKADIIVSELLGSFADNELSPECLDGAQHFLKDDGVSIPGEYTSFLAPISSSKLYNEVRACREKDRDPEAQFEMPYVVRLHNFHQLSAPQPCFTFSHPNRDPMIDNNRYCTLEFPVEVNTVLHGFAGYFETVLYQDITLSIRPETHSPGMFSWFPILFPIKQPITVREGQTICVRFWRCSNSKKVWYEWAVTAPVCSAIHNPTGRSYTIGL
Sequence (Q9BQA1 whole entry partner): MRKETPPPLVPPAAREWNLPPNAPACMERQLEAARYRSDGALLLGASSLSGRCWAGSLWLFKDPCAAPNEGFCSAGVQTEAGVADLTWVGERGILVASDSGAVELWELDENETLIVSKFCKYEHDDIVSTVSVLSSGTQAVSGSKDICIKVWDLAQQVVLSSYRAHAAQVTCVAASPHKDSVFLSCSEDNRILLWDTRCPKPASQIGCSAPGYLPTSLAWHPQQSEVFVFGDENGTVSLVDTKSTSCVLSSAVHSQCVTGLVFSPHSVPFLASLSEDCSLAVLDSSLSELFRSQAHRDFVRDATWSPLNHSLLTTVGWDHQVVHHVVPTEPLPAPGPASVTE

{"molecule": "C[C@@H]1CC[C@@H](c2ccn(-c3cc[nH]n3)n2)N(C(=O)C(=O)Nc2cncc(C(N)=O)c2)C1 (single isomer, unassigned) [Compound 899]", "IC50": "< 50 nM"}
{"molecule": "C[C@H]1CC[C@H](c2ccc3[nH]c(=O)ccc3c2)N(C(=O)C(=O)Nc2cncc(C(N)=O)c2)C1 (single isomer, unassigned) [Compound 809]", "IC50": "< 50 nM"}
{"molecule": "C[C@@H]1CN(C(=O)C(=O)Nc2cnc(N)c(C3CC3)c2)[C@@H](c2ccc3scnc3c2)CC1(F)F (single isomer, unassigned) [Compound 1307]", "IC50": "50 to 500 nM"}
